The measurements presented in this section are drawn from ChEMBL document CHEMBL1201862.

Assign GI50 to each entry below.
test system: M14; assay: NCI tumour cell line growth inhibition, 48 h
Calls of active or inactive are those of the source. No stated cut-off is given here; in the data, active = GI50 up to about 1.1 µM and inactive = higher.

Example results:
compound: NC(C(F)(F)F)(C(F)(F)F)P(=O)(Cc1ccccc1)Cc1ccccc1
test.target: M14
GI50: > 100 µM (inactive)

compound: O=c1c2ncn(CCCl)c2n(-c2ccccc2)c(=S)n1-c1ccccc1
test.target: M14
GI50: > 100 µM (inactive)

compound: CC(=O)OCC1OC(OC(C)=O)C(NC#N)C(OC(C)=O)C1OC(C)=O (stereo unspecified)
test.target: M14
GI50: 97.7 µM (inactive)

compound: ClCc1c(-c2ccccc2)nn(-c2ccccc2)c1CCl
test.target: M14
GI50: 15.4 µM (inactive)

compound: CCN1/C(=C/C#C/C(C)=C\c2sc3ccccc3[n+]2CC)Sc2ccccc21
test.target: M14
GI50: 1.93 µM (inactive)

The recorded GI50 for entry Cn1c(S)nc(C(N)=O)c1N equals > 100 µM (inactive)

---

test system: MCF7; test: NCI tumour cell line growth inhibition, 48 h
Calls of active or inactive are those of the source. No stated cut-off is given here; in the data, active = GI50 up to about 1.1 µM and inactive = higher.
measured.metric: GI50

compound: COc1ccc(N2CCN(c3ccc4c(c3)NCC(=O)N4)CC2)cc1
GI50: > 100 µM (inactive)
//
compound: CN(C)C(=S)N/N=C\C(=N/NC(=S)N(C)C)c1ccccc1
GI50: 4.03 µM (inactive)
//
compound: O=C(O)C1OC1C(=O)O (stereo unspecified)
GI50: > 100 µM (inactive)
//
compound: CCOC(=O)/C(C(=O)Nc1ccc(F)cc1)=C(/N)N1CCCC1
GI50: > 100 µM (inactive)
//
compound: Cc1nc(O)nc(NNCc2ccc(Cl)cc2)c1C(=O)Nc1ccc(Cl)cc1
GI50: > 100 µM (inactive)
//
compound: O=c1c2ncn(CCCl)c2n(-c2ccccc2)c(=S)n1-c1ccccc1
GI50: > 100 µM (inactive)

Please state GI50 for every compound in the list that follows.
1. COC(=O)C1CC23C4=C(CCC41)CCC1CN4CC(C)C(CC(OC(C)=O)C12COC(C)=O)C43O (stereo unspecified)
2. CN1C(=O)N(C)C(O)C(Cl)(Br)C1=O (stereo unspecified)
3. O=C(CC(C(=O)c1ccco1)c1ccsc1)c1ccco1 (stereo unspecified)
4. COC(=O)c1ccccc1C1CN=NC12Cc1cc(C)ccc1C2=O (stereo unspecified)
5. COc1cc(C2C3=C(COC3=O)OC(C)(C)Oc3cc4c(cc32)OCO4)cc(OC)c1O (stereo unspecified)

Reply |
1: > 100 µM (inactive); 2: > 100 µM (inactive); 3: > 100 µM (inactive); 4: 3.58 µM (inactive); 5: 0.364 µM (active)

---

tested on: NCI-H23; assay: NCI tumour cell line growth inhibition, 48 h
Active and inactive are the calls of the source. Cut-off read from the data, not from the text of the source: active = GI50 up to about 1.1 µM and inactive = higher.
Assign GI50 to each entry below.

compound: Cc1c(N)nc([C@H](CC(N)=O)NC[C@H](N)C(N)=O)nc1C(=O)N[C@H](C(=O)N[C@H](C)[C@@H](O)[C@H](C)C(=O)N[C@H](C(=O)NCCc1nc(-c2nc(C(=O)NCCC[S+](C)C)cs2)cs1)[C@@H](C)O)C(OC1OC(CO)C(O)C(O)C1OC1OC(CO)C(O)C(OC(N)=O)C1O)c1c[nH]cn1 (some centres not stated)
obs.value: 0.637 µM (active)

# context switch: different compound, same GI50
# lookup: CC[C@](O)(CC(=O)O[C@H]1C(=O)O[C@@H]2C[C@H]3C(C)=CC(=O)[C@@H](O)[C@]3(C)[C@H]3[C@@]4(O)OC[C@]32[C@@H]1[C@@H](C)[C@H]4O)C(C)C on NCI-H23, GI50 = < 0.01 µM (active)

---

system: M19-MEL; experiment: NCI tumour cell line growth inhibition, 48 h
The source made the active and inactive calls. Rule as the data show it: active = GI50 up to about 1.1 µM and inactive = higher.
Assign GI50 to each entry below.

Example results:
compound: C/C(=N\NC(=O)c1cccnc1)c1cccc(/C(C)=N/NC(=O)c2cccnc2)n1.CC(=O)[O-].CC(=O)[O-].[Zn+2]
measured.metric: GI50
obs.value: 8.45 µM (inactive)

compound: O=C(CC(=O)N1N=C(n2ccc3ccccc32)CC1c1ccccc1)Nc1cccc(Cl)c1 (stereo unspecified)
measured.metric: GI50
obs.value: > 100 µM (inactive)

compound: Cc1ccc2nc3c(C)c(Cl)c(=O)cc-3sc2c1
measured.metric: GI50
obs.value: 4.68 µM (inactive)

compound: OCc1ccc(-c2ccc(-c3ccc(CO)s3)o2)s1
measured.metric: GI50
obs.value: 41.7 µM (inactive)

compound: C/C=C1/C=CC2c3[nH]c4ccccc4c3CCN2C1 (stereo unspecified)
measured.metric: GI50
obs.value: > 400 µM (inactive)

# context switch: different compound, same GI50
The recorded GI50 for entry CCN(CC)CCC1(C2CCCCC2)CCC(=O)NC1=O (stereo unspecified) equals > 100 µM (inactive)

---

tested on: HOP-62; test: NCI tumour cell line growth inhibition, 48 h
Calls of active or inactive are those of the source. Rule as the data show it: active = GI50 up to about 1.1 µM and inactive = higher.
measured.metric: GI50

Example results:
molecule: Cc1ccccc1NC(=O)CC(=O)NNCC(=O)Nc1nnc(-c2ccccc2)s1
obs.value: 42.9 µM (inactive)

molecule: Cc1nc(C)c(N2CCN(CN)CC2)c(O)n1
obs.value: > 100 µM (inactive)

molecule: CC1=C(C(=O)CC(=O)C(=O)Nc2cccc(C)c2C)Sc2ccccc2N1
obs.value: > 100 µM (inactive)

molecule: CN1CCc2c1nc(-c1cccnc1)c1c2N(C)CC1
obs.value: > 100 µM (inactive)

molecule: Cn1c(S)nc(C(N)=O)c1N
obs.value: > 100 µM (inactive)

Please state GI50 for every molecule in the list that follows.
1. Cc1cc(C)nc(NS(=O)(=O)c2ccc(Nc3c4ccc(Cl)cc4nc4c(C(=O)Nc5ccc(S(N)(=O)=O)cc5)cccc34)cc2)n1
2. CCN(CC)CCNc1ccc([N+](=O)[O-])c2nc3ccccc3c(N)c12
3. Nc1ccc(/N=N/c2ccccc2)cc1
4. CCOC(=O)/C=C(/C(=O)OCC)n1cc(C)c(=O)n(Cc2cnnn2COCCOC(C)=O)c1=O
5. Oc1cc(O)c(Oc2cccc(O)c2O)c(O)c1

Reply |
1: 14.1 µM (inactive); 2: 1.48 µM (inactive); 3: 42 µM (inactive); 4: 49.7 µM (inactive); 5: > 100 µM (inactive)

Please state GI50 for every molecule in the list that follows.
1. COC(=O)NCCc1n[nH]c2c1C(=O)C=C(N1CCOCC1)C2=O
2. CC(C)C1OC(=O)/C=C/C=C/C=C/C=C/C=C/CC(O)C(C)C(O)CC(O)CC(O)CC(O)CC(O)CC(O)CC(O)/C=C/C1C (stereo not given)
3. N=C1N(/N=C/c2ccccn2)/C(=N\c2ccccc2)C(=S)N1c1ccccc1
4. O=C(CC(=O)N1N=C(n2ccc3ccccc32)CC1c1ccccc1)Nc1cccc(Cl)c1 (stereo not given)

Reply |
["> 100 µM (inactive)", "> 100 µM (inactive)", "10.2 µM (inactive)", "> 100 µM (inactive)"]

Please state GI50 for every molecule in the list that follows.
1. c1ccc(C(C2=Nc3cccc4cccc(c34)N2)c2ccccc2)cc1
2. CC1(C)OCC([C@H]2O[C@@H](CC(=S)NCCCCCCCCCCCCNC(=S)C[C@H]3O[C@@H](C4COC(C)(C)O4)[C@H]4OC(C)(C)O[C@H]43)[C@H]3OC(C)(C)O[C@H]32)O1 (stereo not given in full)

Reply |
["23.1 µM (inactive)", "> 100 µM (inactive)"]

Please state GI50 for every molecule in the list that follows.
1. COc1ccc(-c2nc3ccccc3s2)cc1OC
2. CSc1ccc(NC(=O)C2CCCCC2C(=O)O)cc1 (stereo not given)
3. CN(C)c1ccc(/C=c2\sc3nc4ccccc4n3c2=O)cc1
4. COC(=O)C(Cc1c[nH]c2ccccc12)NP(=O)(O)OCC1OC(n2cc(I)c(=O)[nH]c2=O)CC1O (stereo not given)

Reply |
67.9 µM (inactive)
> 100 µM (inactive)
> 100 µM (inactive)
> 100 µM (inactive)

---

system: SN12C; assay: NCI tumour cell line growth inhibition, 48 h
Calls of active or inactive are those of the source. No stated cut-off is given here; in the data, active = GI50 up to about 1.1 µM and inactive = higher.
Choose the fitting class; nothing outside active, inactive is accepted.

molecule: C=C1C(OC2O[C@@H]3O[C@@]4(C)CC[C@H]5[C@H](C)CC[C@@H](C2=C)[C@@]35O4)O[C@@H]2O[C@@]3(C)CC[C@H]4[C@H](C)CC[C@@H]1[C@@]24O3 (some centres undefined)
test.target: SN12C
assigned.label: inactive
--
molecule: CSc1nc(=S)[nH]c2[nH]nc(C)c12
test.target: SN12C
assigned.label: inactive
--
molecule: COc1ccc(C(O)(c2ccccc2)c2nccc3ccccc23)cc1 (centres undefined)
test.target: SN12C
assigned.label: inactive
--
molecule: COc1ccc2[nH]c3c(C)c4ccnc(NCCCN(C)CCCNc5ccc6nnn7c8ccccc8c(=O)c5c67)c4c(C)c3c2c1
test.target: SN12C
assigned.label: active
--
molecule: O=C(CC(=O)c1ccccc1)C(=O)NC12CC3CC(CC(C3)C1)C2
test.target: SN12C
assigned.label: inactive
--
molecule: CC(C)=CCC/C(C)=C/CC/C(C)=C/CC/C=C(\C)CC/C=C(\C)CCC1SC1(C)C (centres undefined)
test.target: SN12C
assigned.label: inactive

Ask | # lookup: test call for O=C(c1ccccc1)c1c(C(=O)c2ccccc2)c(-c2ccccc2)c2c(-c3ccccc3)sc(-c3ccccc3)c2c1-c1ccccc1
Reply | inactive

Ask | # lookup: test call for CC(C)CNC(=O)O
Reply | inactive

Ask | # lookup: test call for N#CC(C#N)=Cc1ccc(CP(=O)(O)O)cc1
Reply | inactive
